FYI, the data here is from patent US9732044B2.

system: androgen receptor (AR) (Homo sapiens (Human))
protocol.details: Androgen receptor transactivation test in PALM cell line (cross curves against methyl trienolone)
Assay type: cell-based
assay.context: Kdapp, threshold lists, PALM cells
quantity.kind: Kd

compound	quantity.kind	experimental.value
COc1cc(NC(=O)C(O)(C(C)C)C(C)C)cc(Br)n1	Kd	≤ 30 nM

Which Kd is reported with androgen receptor (AR) (Homo sapiens (Human)) for this entry: CC(O)(CCc1ccccc1)C(=O)Nc1ccnc(Br)c1 (centres unmarked) ?
≤ 100 nM

----------
system: androgen receptor (AR) (Homo sapiens (Human))
protocol.details: Androgen receptor transactivation test in PALM cell line (cross curves against methyl trienolone)
Assay type: cell-based
assay.context: apparent dissociation constant, PALM cells (PC3 androgen receptor Luciferase MMTV), read-out: Kdapp
Consider the following compounds; for each one, report its pKd.
Numbers only, as −log10 of the molar value.

// worked examples, pKd included
compound	experimental.value
CCCCC(C)(O)C(=O)Nc1cc(Br)nc(OC)c1 (centres unmarked) [Compound 8]	7.52
COc1ccc(CCC(C)(O)C(=O)Nc2ccnc(Br)c2)cc1 (centres unmarked) [Compound 24]	6.52
CCCCC(O)(CCCC)C(=O)Nc1ccnc(Br)c1 [Compound 23]	7.82
COc1cc(NC(=O)C(C)(O)CC(C)C)cc(Br)n1 (racemic) [Compound 41]	7.70
CCCC(C)(O)C(=O)Nc1ccnc(Br)c1 (centres unmarked) [Compound 1]	7.12

Field: pKd. Fill in for each record below.
1. CC(O)(C(=O)Nc1ccnc(Br)c1)c1ccccc1 (centres unmarked) [Compound 32]
2. CCCC(C)(O)C(=O)Nc1ccnc(C(=O)OC)c1 (centres unmarked) [Compound 59]

1: 7.00; 2: 5.22

Returns the measured pKd for the input compound. Input: CC(O)(CCc1ccccc1)C(=O)Nc1ccnc(Br)c1 (centres unmarked) [Compound 43]
7.00

----------
Consider the following compounds; for each one, report its Kd.
system: androgen receptor (AR) (Homo sapiens (Human), UniProt P10275)
Sequence (P10275 whole entry): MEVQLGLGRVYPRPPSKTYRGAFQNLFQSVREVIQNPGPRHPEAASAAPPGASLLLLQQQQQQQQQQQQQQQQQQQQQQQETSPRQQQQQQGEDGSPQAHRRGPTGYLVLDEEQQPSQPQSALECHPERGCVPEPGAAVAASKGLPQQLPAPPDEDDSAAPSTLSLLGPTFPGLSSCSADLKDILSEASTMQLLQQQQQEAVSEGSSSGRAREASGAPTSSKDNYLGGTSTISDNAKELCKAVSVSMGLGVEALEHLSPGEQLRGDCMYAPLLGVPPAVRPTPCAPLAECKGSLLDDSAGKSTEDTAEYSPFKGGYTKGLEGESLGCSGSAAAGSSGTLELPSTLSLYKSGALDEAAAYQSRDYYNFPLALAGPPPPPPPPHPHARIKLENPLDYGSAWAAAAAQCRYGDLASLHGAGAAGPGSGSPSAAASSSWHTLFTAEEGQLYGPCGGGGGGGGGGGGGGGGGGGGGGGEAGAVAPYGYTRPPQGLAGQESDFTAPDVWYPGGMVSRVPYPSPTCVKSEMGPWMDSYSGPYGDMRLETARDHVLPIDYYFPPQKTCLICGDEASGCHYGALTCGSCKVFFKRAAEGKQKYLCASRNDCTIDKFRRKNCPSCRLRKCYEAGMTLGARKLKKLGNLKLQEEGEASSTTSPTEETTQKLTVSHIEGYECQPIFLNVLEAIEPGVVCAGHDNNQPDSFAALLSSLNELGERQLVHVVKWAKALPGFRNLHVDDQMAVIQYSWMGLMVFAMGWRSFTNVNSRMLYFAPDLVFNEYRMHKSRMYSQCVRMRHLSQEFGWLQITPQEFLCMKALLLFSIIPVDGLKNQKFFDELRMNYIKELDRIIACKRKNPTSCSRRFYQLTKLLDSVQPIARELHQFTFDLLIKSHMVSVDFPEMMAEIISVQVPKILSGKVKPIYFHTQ
protocol.details: Androgen receptor transactivation test in PALM cell line (cross curves against methyl trienolone)
Type: cell-based
assay.context: threshold lists, PALM cells, read-out: Kdapp

compound	system	experimental.value
CCCCC(C)(O)C(=O)Nc1cc(Br)nc(OC)c1 (centres unmarked) [Compound 72A]	androgen receptor (AR) (Homo sapiens (Human), UniProt P10275)	≤ 30 nM

Field: Kd. Fill in for each record below.
1. CCCC(C)(O)C(=O)Nc1cc(Br)nc(OC)c1 (centres unmarked) [Compound 78A]
2. CCCC(C)(O)C(=O)Nc1ccnc(C(=O)OC)c1 (centres unmarked)
3. CCC(O)(C(=O)Nc1cc(Br)nc(OC)c1)C1CCCC1 (centres unmarked) [Compound 73A]
4. CCCCC(C)(O)C(=O)Nc1cc(Br)nc(OC)c1 (centres unmarked) [Compound 8]
5. CCCC(O)(CC)C(=O)Nc1cc(Br)nc(OC)c1 (centres unmarked) [Compound 75A]

1: ≤ 100 nM; 2: ≤ 10000 nM; 3: ≤ 30 nM; 4: ≤ 30 nM; 5: ≤ 100 nM

----------
system: androgen receptor (AR) (Homo sapiens (Human), UniProt P10275)
protocol.details: Androgen receptor transactivation test in PALM cell line (cross curves against methyl trienolone)
Assay type: cell-based
assay.context: threshold lists, PALM cells, read-out: Kdapp
quantity.kind: Kd

compound	system	Kd
CCCCC(O)(CCCC)C(=O)Nc1cc(Br)nc(OC)c1 [Compound 66]	androgen receptor (AR) (Homo sapiens (Human), UniProt P10275)	≤ 100 nM
COc1cc(NC(=O)C(C)(O)c2ccc(F)cc2)ccn1 (centres unmarked) [Compound 27]	androgen receptor (AR) (Homo sapiens (Human), UniProt P10275)	≤ 300 nM
COc1cc(NC(=O)C(C)(O)C2CCOCC2)cc(Br)n1 (centres unmarked) [Compound 69]	androgen receptor (AR) (Homo sapiens (Human), UniProt P10275)	≤ 1000 nM
CCC(O)(C(=O)Nc1cc(Br)nc(OC)c1)C1CCCC1 (centres unmarked) [Compound 73B]	androgen receptor (AR) (Homo sapiens (Human), UniProt P10275)	≤ 100 nM
COc1ccc(CCC(C)(O)C(=O)Nc2ccnc(Br)c2)cc1 (centres unmarked) [Compound 24]	androgen receptor (AR) (Homo sapiens (Human), UniProt P10275)	≤ 300 nM
CCCC(C)(O)C(=O)Nc1ccnc(Br)c1 (centres unmarked) [Compound 1]	androgen receptor (AR) (Homo sapiens (Human), UniProt P10275)	≤ 100 nM
CCCC(O)(CC)C(=O)Nc1cc(Br)nc(OC)c1 (centres unmarked) [Compound 19]	androgen receptor (AR) (Homo sapiens (Human), UniProt P10275)	≤ 30 nM
COc1cc(NC(=O)C(C)(O)CC(C)C)cc(Br)n1 (single isomer, unassigned) [Compound 71A]	androgen receptor (AR) (Homo sapiens (Human), UniProt P10275)	≤ 30 nM

Field: Kd. Fill in for each record below.
1. COc1cc(NC(=O)C(C)(O)C(C)C)cc(Br)n1 (centres unmarked) [Compound 76B]
2. CCCCC(C)(O)C(=O)Nc1ccnc(Br)c1 (single isomer, unassigned) [Compound 80A]
3. CCCCC(C)(O)C(=O)Nc1ccnc(Br)c1 (single isomer, unassigned) [Compound 80B]
4. CCCCC(C)(O)C(=O)Nc1cc(Br)nc(OC)c1 (centres unmarked) [Compound 72B]
5. CCCC(O)(C(=O)Nc1cc(Br)nc(OC)c1)C(C)C (centres unmarked) [Compound 79A]
6. CC(O)(C(=O)Nc1ccnc(Br)c1)c1ccccc1 (centres unmarked) [Compound 32]

1. ≤ 100 nM
2. ≤ 100 nM
3. ≤ 300 nM
4. ≤ 100 nM
5. ≤ 30 nM
6. ≤ 100 nM

Field: Kd. Fill in for each record below.
1. CCC(O)(C(=O)Nc1ccnc(Br)c1)C1CCCC1 (centres unmarked) [Compound 77A]
2. CCCC(C)(O)C(=O)Nc1cc(Br)nc(OC)c1 (centres unmarked) [Compound 78B]
3. COc1cc(NC(=O)C(C)(O)CC(C)C)cc(Br)n1 (single isomer, unassigned) [Compound 71B]
4. CCC(O)(C(=O)Nc1cc(Br)nc(OC)c1)C(C)C (centres unmarked) [Compound 13]
5. CCCC(O)(C(=O)Nc1cc(Br)nc(OC)c1)C(C)C (centres unmarked) [Compound 79B]
6. CCC(O)(C(=O)Nc1cc(Br)nc(OC)c1)C1CCCC1 (centres unmarked) [Compound 9]

≤ 30 nM
≤ 100 nM
≤ 30 nM
≤ 30 nM
≤ 30 nM
≤ 30 nM

Field: Kd. Fill in for each record below.
1. CCC(O)(C(=O)Nc1ccnc(Br)c1)C1CCCC1 (centres unmarked) [Compound 77B]
2. COc1cc(NC(=O)C(C)(O)CC(C)C)cc(Br)n1 (racemic) [Compound 41]
3. CCCCC(O)(CCCC)C(=O)Nc1ccnc(Br)c1 [Compound 23]
4. COc1cc(NC(=O)C(C)(O)C(C)C)cc(Br)n1 (centres unmarked) [Compound 76A]
5. CCC(O)(C(=O)Nc1ccnc(Br)c1)C1CCCC1 (centres unmarked) [Compound 51]
6. CCC(O)(C(=O)Nc1cc(Br)nc(OC)c1)C(C)C (centres unmarked) [Compound 74B]

≤ 30 nM
≤ 30 nM
≤ 30 nM
≤ 30 nM
≤ 30 nM
≤ 30 nM
